Target: endothelin receptor (membrane of smooth muscle tissue of porcine aorta) (Sus scrofa, UniProt Q29010)
Construct: from tissue; host or cells: porcine aorta smooth muscle, membrane fraction
Sequence (Q29010 21-427): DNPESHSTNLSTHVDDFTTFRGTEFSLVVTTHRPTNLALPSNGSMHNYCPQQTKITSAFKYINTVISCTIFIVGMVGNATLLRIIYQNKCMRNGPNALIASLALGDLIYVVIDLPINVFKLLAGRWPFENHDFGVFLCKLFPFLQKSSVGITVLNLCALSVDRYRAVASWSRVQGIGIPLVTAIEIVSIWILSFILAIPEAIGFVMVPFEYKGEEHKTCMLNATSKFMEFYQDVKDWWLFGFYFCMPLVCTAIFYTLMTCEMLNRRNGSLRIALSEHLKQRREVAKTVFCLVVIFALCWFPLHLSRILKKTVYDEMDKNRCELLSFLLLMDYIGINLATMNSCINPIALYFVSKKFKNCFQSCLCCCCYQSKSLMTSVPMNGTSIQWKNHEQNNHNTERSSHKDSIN
Experiment: Endothelin binding inhibition test (125I-endothelin-1, porcine aorta smooth muscle membrane)
Conditions: 1.1 μM test compound (no mark); read-out: 125I-endothelin-1 binding inhibition
Numbered stars: 1 amine (or outer) side, 2 acyl side, 3 side chain; on linkers, the order of the positions; unused ones are H or OH. Square brackets hold non-standard residues; d marks the D form. Peptide text beside a SMILES is read from it. * marks the point of attachment. Nva = CCC[C@H](N)C(=O)O; Boc = CC(C)(C)OC(=O)*; CO = O=C([*:1])[*:2]; OBn = c1ccc(CO*)cc1; NHtBu = CC(C)(C)N*; βAla = NCCC(=O)O; NEt2 = CCN(CC)*
Think of 40% as a floor: if inhibition at 1.1 µM stands on it or above, it is Criterion met; beneath it, Criterion not met.

Solved entries (count: 5):
[
  {
    "molecule": "CC(C)C[C@H](NC(=O)N1C(C)(C)CCCC1(C)C)C(=O)N[C@H](Cc1c[nH]c2ccccc12)C(=O)NCCC(=O)O [Compound 74]",
    "category": "Criterion met"
  },
  {
    "molecule": "CC(C)C[C@H](NC(=O)OC(C)(C)C)C(=O)N[C@H](Cc1c[nH]c2ccccc12)C(=O)N[C@H](CC(=O)OCc1ccccc1)C(N)=O [Compound 35] (Boc-Leu-[dW]-[dD](OBn)-NH2)",
    "category": "Criterion not met"
  },
  {
    "molecule": "CCN(CC)C(=O)N[C@@H](CC(C)C)C(=O)N[C@H](Cc1c[nH]c2ccccc12)C(=O)NCCC(=O)O [Compound 77] ({NEt2-CO}-Leu-[dW]-[βAla]-OH)",
    "category": "Criterion met"
  },
  {
    "molecule": "CC(C)C[C@H](NC(=O)c1cccs1)C(=O)N[C@H](Cc1c[nH]c2ccccc12)C(=O)NCCC(=O)O [Compound 55]",
    "category": "Criterion met"
  },
  {
    "molecule": "CC(C)C[C@H](NC(=O)OC(C)(C)C)C(=O)N[C@H](Cc1c[nH]c2ccccc12)C(=O)NCC(O)C(=O)O (stereo partly drawn) [Compound 17]",
    "category": "Criterion not met"
  }
]

Enquiry: In plain terms: is recorded inhibition at 1.1 µM at least 40% for CC(C)C[C@H](NC(=O)N(C)c1ccccc1)C(=O)N[C@H](Cc1c[nH]c2ccccc12)C(=O)NCCC(=O)O [Compound 76] ?
Return: Criterion met

Enquiry: Try this molecule too: CCC[C@H](NC(=O)OC(C)(C)C)C(=O)N[C@H](Cc1c[nH]c2ccccc12)C(=O)NCCC(=O)O [Compound 28] (Boc-[Nva]-[dW]-[βAla]-OH)
Return: Criterion not met

Enquiry: Try this molecule too: COC(=O)[C@@H](Cc1c[nH]cn1)NC(=O)[C@@H](Cc1c[nH]c2ccccc12)NC(=O)[C@H](CC(C)C)NC(=O)N1CCCCCC1 [Compound 47]
Return: Criterion met

Enquiry: Try this molecule too: CC(C)C[C@H](NC(=O)NC(C)(C)C)C(=O)N[C@H](Cc1c[nH]c2ccccc12)C(=O)NCCC(=O)O [Compound 85] ({NHtBu-CO}-Leu-[dW]-[βAla]-OH)
Return: Criterion met

These measurements were taken from patent US5470833A.
